Assay: Selectivity index, ratio of IC50 for human RPE1 cells to IC50 for human PANC1 cells
Format: toxicity
Settings: RPE1 cells versus PANC1 cells, read-out: Ratio IC50
measured-property: selectivity ratio

>>> df
                                 mol_smiles  measured_property  test_value
0  CCOc1ccc(NC(=O)/C(C#N)=C(\Nc2ccccc2)SC)cc1  selectivity ratio         > 2
1        CCOc1ccc(NC(=O)c2c(N)n[nH]c2NC)cc1  selectivity ratio       > 3.2
2  CCOc1ccc(-n2nnc3n[nH]c(Nc4ccccc4)c3c2=O)cc1  selectivity ratio       > 7.6
3  CCOc1ccc(NC(=O)c2c(N)n[nH]c2NC23CC4CC(CC(C4)C2)C3)cc1  selectivity ratio         6.2
4       CCOc1ccc(NC(=O)/C(C#N)=C(\NC)SC)cc1  selectivity ratio       > 3.8

Report selectivity ratio for `C=CCNc1[nH]nc2nnn(-c3ccc(OCC)cc3)c(=O)c12`
> 7.5

Report selectivity ratio for `CCNc1[nH]nc2nnn(-c3ccc(OCC)cc3)c(=O)c12`
> 6.2

Report selectivity ratio for `CCN/C(SC)=C(/C#N)C(=O)Nc1ccc(OCC)cc1`
> 2.4

Report selectivity ratio for `CCOc1ccc(-n2nnc3n[nH]c(NC)c3c2=O)cc1`
> 10.1

Report selectivity ratio for `CCOc1ccc(NC(=O)c2c(N)n[nH]c2Nc2ccccc2)cc1`
3.2

Report selectivity ratio for `C=CCN/C(SC)=C(/C#N)C(=O)Nc1ccc(OCC)cc1`
> 4.6

Report selectivity ratio for `CCOc1ccc(NC(=O)CC#N)cc1`
> 2.3

FYI, the data here is from ChEMBL document CHEMBL4251555.
